Each recorded value in this set is attributed to PubChem BioAssay (NCATS).

Assay: Quantitative High-Throughput drug screen in 47 multiple myeloma cell lines against the NCATS MIPE library collection: Karpas620_DSMZ cell viability assay (AID 1918959); note: nearly all actives have a fitted effect of over 30% in size
Details: Karpas620 myeloma viability, CellTiter-Glo ATP luminescence, 48 h; series mostly up to 45.8 µM
Source text: PI: Beverly A. Mock Ph.D. Laboratory of Cancer Biology and Genetics, Center for Cancer Research, National Cancer Institute, National Institute of Health, Bethesda, Maryland […] 5; Detector; 425V; Luminescence; Viewlux PerkinElmer. […] 1. […] Briefly, the corresponding myeloma cell lines were screened in 1,536-well plates with 500 cells, 5-uL per well for inhibition of cell viability (assessed by measuring ATP levels with CellTiterGlo). […]
Results filed as inconclusive are left out. Activity calls are given as the source filed them. Calls come from the whole dose curve; as a rule, active = well fitted cell-killing curve with a large enough effect; inconclusive = small, poorly fitted or top-dose-only effect, or effect the other way; inactive = no such curve, though single readings can be large or run the other way.
Outcome field: choose from 1 for active, 0 for inactive

- Cpd Smiles: "CCN1CCC(n2cc(CNc3cc(Cl)c4ncc(C#N)c(Nc5ccc(F)c(Cl)c5)c4c3)nn2)CC1"
  Label Class: 1
- Cpd Smiles: "CN1CCN(c2cccc(Nc3nc4c(-c5ccc(S(C)(=O)=O)cc5)cccn4n3)c2)CC1"
  Label Class: 1
- Cpd Smiles: "COc1c(C)c2c(c(O)c1CC=C(C)CCC(=O)OCCN1CCOCC1)C(=O)OC2"
  Label Class: 0
- Cpd Smiles: "CCc1cc(-c2n[nH]c(C)c2-c2ccc3c(c2)OCCO3)c(O)cc1O"
  Label Class: 1

Next:
How did this test come out for "CC[C@H](C)n1cc(C)c2c(C(=O)NCc3c(C)cc(C)[nH]c3=O)cc(-c3ccc(N4CCNCC4)nc3)cc21" ?
0

###

Assay: qHTS of pediatric cancer cell lines to identify multiple opportunities for drug repurposing: Primary screen for RD cells (AID 1347104); note: nearly all actives have a fitted effect of over 55% in size
Details: RD rhabdomyosarcoma viability, CellTiter-Glo luminescence, 48 h; series mostly up to 46 µM
Inconclusive results are not listed. Calls of active or inactive are those of the source. Calls follow the shape of the dose curve; as a rule, active = well fitted cell-killing curve with a large enough effect; inconclusive = small, poorly fitted or top-dose-only effect; inactive = flat fitted curve, though single readings scatter.
Respond with a class label; see true (1) = active, false (0) = inactive

Here are 5 compounds together with their reported answers.
- Compound: "CCNC(=O)CCCC=CC[C@@H]1[C@H](C=CC(O)CCc2ccccc2)[C@@H](O)C[C@@H]1O (stereo partly drawn)"
  Label Class: "false (0)"
- Compound: "CC(NCCc1ccc(O)cc1)C(O)c1ccc(O)cc1 (stereo not drawn)"
  Label Class: "false (0)"
- Compound: "CN(C)CCOc1ccc(C(=C(CCCl)c2ccccc2)c2ccccc2)cc1"
  Label Class: "false (0)"
- Compound: "CC1(C)OC2CC3C4CC(F)C5=CC(=O)C=CC5(C)C4C(O)CC3(C)[C@]2(C(=O)CO)O1 (stereo partly drawn)"
  Label Class: "false (0)"
- Compound: "CN(C)CC[C@H](CSc1ccccc1)Nc1ccc(S(=O)(=O)NC(=O)c2ccc(N3CCN(Cc4ccccc4-c4ccc(Cl)cc4)CC3)cc2)cc1[N+](=O)[O-]"
  Label Class: "true (1)"

Per the assay record, what outcome was assigned to "O=C(CO)N1CCC(c2[nH]nc(-c3ccc(Cl)cc3)c2-c2ccncn2)CC1" ?
false (0)

Could you kindly confirm the outcome this assay logged for "CC[C@]1(O)C[C@H]2CN(CCC3=c4ccccc4=N[C]3[C@@](C(=O)OC)(c3cc4c(cc3OC)N(C)[C@H]3[C@@](O)(C(N)=O)[C@H](O)[C@]5(CC)C=CCN6CC[C@]43[C@@H]65)C2)C1" ?
true (1)

Please let me know the test result on file for "O=C1CCCC(=O)C1C(=O)c1ccc(C(F)(F)F)cc1[N+](=O)[O-]" .
false (0)

###

Experiment: qHTS of pediatric cancer cell lines to identify multiple opportunities for drug repurposing: Confirmatory screen for BT-37 cells (AID 1347117);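 note: viability measured after 48 h of compound exposure; nearly all actives have a fitted effect of over 55% in size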
Conditions: BT-37 pediatric cancer cells, viability; series mostly up to 45.9 µM
Inconclusive results are not listed. Calls of active or inactive are those of the source. The call rests on the fitted dose curve; in most records, active means well fitted cell-killing curve with a large enough effect; inconclusive means small, poorly fitted or top-dose-only effect; inactive means no such curve, though single readings can be large or run the other way.
Outcome (select one): active, inactive

Field: example entries. Status: answers known.
- Compound: "C[C@H](c1ccc(F)cc1CCCC(=O)O)N(c1cc(F)ccc1F)S(=O)(=O)c1ccc(Cl)cc1"
  Label Class: "inactive"
- Compound: "Cc1ccc(S(=O)(=O)Nc2nc3ccccc3nc2Nc2ccc3nsnc3c2)cc1"
  Label Class: "active"
- Compound: "COC(=O)Nc1ccc(-c2nc(N3CCOCC3)c3cnn(C4CCN(C(=O)OC)CC4)c3n2)cc1"
  Label Class: "active"

Write down the call the test reported for this compound. Item: "CO[C@H]1/C=C\O[C@@]2(C)Oc3c(C)c(O)c4c(O)c(c5c(nc6cc(C)ccn65)c4c3C2=O)NC(=O)C(C)=CC=C[C@H](C)[C@H](O)[C@@H](C)[C@@H](O)[C@@H](C)[C@H](OC(C)=O)[C@H]1C"
inactive

Would you mind telling me which call this test gave "OCCn1cc(-c2ccc3c(c2)CCC3=NO)c(-c2ccncc2)n1" ?
inactive

Recorded test call requested for COC1CCC(C(=O)c2ccc3nc4c(cc3c2)CCCO4)CC1 (configuration not stated)
inactive

// param item: "CC(C)C[C@H](NC(=O)c1cc2ccccc2s1)C(=O)N1CCN(C(=O)[C@H](CO)NS(=O)(=O)c2ccc(Cl)cc2Cl)CC1" ; yields the recorded call
active

Assay outcome for "CC(C)(C)c1[nH]cnc1C=c1[nH]c(=O)c(=Cc2ccccc2)[nH]c1=O" : what was it?
active

Per the records of this test, what outcome belongs to "CN[C@@H]1CN(c2ccc3c(=O)c(C(=O)O)cn(-c4nccs4)c3n2)C[C@@H]1OC" ?
active

Recorded call for CC1C(=O)OC2C(O)C34C5CC(C(C)(C)C)C36C(OC(=O)C6O)OC4(C(=O)O5)C12O (configuration not stated) ?
inactive

Hello, I am checking results. What call was entered for "CCCCn1c(=O)n(Cc2ccccc2F)c(=O)c2[nH]c(Cc3ccc(NC(C)=O)cc3)nc21" ?
inactive

Fill in: this test's call for CCC(c1ccc(O)cc1)C(CC)c1ccc(O)cc1 (configuration not stated) is ___
active

###

Assay: qHTS Screen of the MIPE 4.0 Collection Against Ewings Sarcoma (RDES) (AID 1259252); note: nearly all actives have a fitted effect of over 35% in size
Details: RD-ES Ewing sarcoma viability, CellTiter-Glo, 48 h; series mostly up to 45.8 µM
Inconclusive results are not listed. Calls of active or inactive are those of the source. The call rests on the fitted dose curve; in most records, active means well fitted inhibition curve with a large enough effect; inconclusive means small, poorly fitted or top-dose-only effect; inactive means no such curve, though single readings can be large or run the other way.
Respond with a class label; see active, inactive

Please review the entries below; each comes with its answer.
- Compound: "CC[C@H](NC(=O)[C@H](C)NC)C(=O)N1C[C@@H](O)C[C@H]1Cc1c(-c2[nH]c3cc(F)ccc3c2C[C@H]2C[C@H](O)CN2C(=O)[C@H](CC)NC(=O)[C@H](C)NC)[nH]c2cc(F)ccc12"
  Label Class: "inactive"
- Compound: "CC1(C)OC2CC3C4CC(F)C5=CC(=O)C=CC5(C)C4C(O)CC3(C)[C@]2(C(=O)CO)O1 (stereo partly drawn)"
  Label Class: "inactive"
- Compound: "Cn1cc(-c2ccc3nnc(Sc4ccc5ncccc5c4)n3n2)cn1"
  Label Class: "active"
- Compound: "C[C@@]1(C(=O)Nc2ccc(F)nc2)CCCN1c1nc(Nc2cc(C3CC3)[nH]n2)c2cccn2n1"
  Label Class: "active"
- Compound: "C[C@@]1(c2cc(-c3cncnc3)c(F)cc2F)CCSC(N)=N1"
  Label Class: "inactive"

Recorded call for CC1C(=O)OC2C(O)C34C5CC(C(C)(C)C)C36C(OC(=O)C6O)OC4(C(=O)O5)C12O (stereo not drawn) ?
active

Recorded test call requested for "C=C1[C@H](n2cnc3c(=O)[nH]c(N)nc32)C[C@H](O)[C@H]1CO"
active

Identify the outcome logged in this assay for the compound shown: CO[C@@H]1C(N(C)C(=O)c2ccccc2)C[C@H]2O[C@]1(C)n1c3ccccc3c3c4c(c5c6ccccc6n2c5c31)C(=O)NC4=O (stereo partly drawn)
active

What did this assay record as the result for "CC(=O)O[C@]1(C(C)=O)CC[C@H]2[C@@H]3C=C(Cl)C4=CC(=O)[C@@H]5C[C@H]5[C@]4(C)[C@@H]3CC[C@@]21C" ?
active

Record request — test call for "Cc1cc(-c2ncc(CC(=O)Nc3ccc(-c4cnccn4)cn3)cc2C)ccn1"
active

Tell me the assay call for "N#CC1(c2cccc(C(=O)Nc3cc(Oc4ccc5nc(NC(=O)C6CC6)sc5n4)ccc3F)c2Cl)CC1" please.
active

Status in this test for "Cc1[nH]c(C=C2C(=O)Nc3ccc(S(=O)(=O)N(C)c4cccc(Cl)c4)cc32)c(C)c1C(=O)N1CCN(C)CC1" ?
active

Outcome logged for "COc1ccc(C=CC(=O)Nc2ccccc2C(=O)O)cc1OC" in this assay:
inactive

Call for entry "CN1CCN(c2ncc(-c3cc(Cl)cc(Cl)c3Cl)c(N)n2)CC1" :
inactive

I would be grateful if you could indicate the recorded call for CCCCN(CCCC)CC(O)c1cc(Cl)cc2c1-c1ccc(Cl)cc1C2=Cc1ccc(Cl)cc1 (stereo not drawn) .
inactive

Can you look up the reported call for "Cn1cnc(-c2cc3nccc(Oc4ccc(NC(=S)NC(=O)Cc5ccccc5)cc4F)c3s2)c1" for me?
active

For O=C(O)C1=CC(O)C(O)[C@H](O)C1 (stereo partly drawn) , which call appears in the assay record?
inactive

Hello, I am checking results. What call was entered for "COc1ccc(-c2oc3c(CC=C(C)C)c(O)cc(O)c3c(=O)c2O)cc1" ?
active
